biological target: DNA topoisomerase 1 (Homo sapiens) (UniProt P11387); assay: Inhibition of DNA topoisomerase 1 (unknown origin) assessed as reduction in supercoiled pBR322 plasmid DNA relaxation at 100 uM after 15 mins by ethidium bromide staining based agarose gel electrophoresis
Sequence (P11387 whole entry): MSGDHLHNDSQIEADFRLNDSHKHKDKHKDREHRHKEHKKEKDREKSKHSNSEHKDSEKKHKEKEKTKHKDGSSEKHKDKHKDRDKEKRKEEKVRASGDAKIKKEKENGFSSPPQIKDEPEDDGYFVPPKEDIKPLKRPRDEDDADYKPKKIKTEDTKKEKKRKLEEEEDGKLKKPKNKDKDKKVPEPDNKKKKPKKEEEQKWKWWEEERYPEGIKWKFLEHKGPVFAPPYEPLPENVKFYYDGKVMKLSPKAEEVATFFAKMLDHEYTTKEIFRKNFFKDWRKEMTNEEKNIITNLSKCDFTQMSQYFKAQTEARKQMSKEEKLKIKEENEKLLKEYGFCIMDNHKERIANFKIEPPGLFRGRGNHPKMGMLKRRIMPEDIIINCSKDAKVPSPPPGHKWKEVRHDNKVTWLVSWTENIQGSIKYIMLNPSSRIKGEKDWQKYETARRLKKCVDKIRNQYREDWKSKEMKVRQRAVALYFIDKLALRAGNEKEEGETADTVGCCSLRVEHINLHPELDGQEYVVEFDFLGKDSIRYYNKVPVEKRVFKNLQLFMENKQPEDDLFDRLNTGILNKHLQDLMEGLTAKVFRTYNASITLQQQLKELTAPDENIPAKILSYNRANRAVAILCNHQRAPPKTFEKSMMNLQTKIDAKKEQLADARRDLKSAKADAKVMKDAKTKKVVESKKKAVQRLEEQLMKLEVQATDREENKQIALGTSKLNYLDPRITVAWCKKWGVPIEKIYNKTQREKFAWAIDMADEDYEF
The source made the active and inactive calls. No cut-off for these calls is given here.
Measurement name: inhibition

Examples with answers:
QUERY: For CC(=O)N1CCN(c2cc3c(c4nsnc24)C(=O)c2ccccc2C3=O)CC1 , what is its reported inhibition?
RESULT: Active

QUERY: For O=C1c2ccccc2C(=O)c2c1cc(S(=O)(=O)Cc1ccccc1Cl)c1nsnc21 , what is its reported inhibition?
RESULT: Active

QUERY: For O=C1c2ccccc2C(=O)c2c1cc(S(=O)(=O)c1ccc3ccccc3c1)c1nsnc21 , what is its reported inhibition?
RESULT: Active

QUERY: For CC(C)Nc1cc2c(c3nsnc13)C(=O)c1ccccc1C2=O , what is its reported inhibition?
RESULT: Active

QUERY: For CN1CCN(c2cc3c(c4nsnc24)C(=O)c2ccccc2C3=O)CC1 , what is its reported inhibition?
RESULT: Active

QUERY: For O=C1c2ccccc2C(=O)c2c1cc(S(=O)(=O)c1cccs1)c1nsnc21 , what is its reported inhibition?
RESULT: Active

New cases:
QUERY: For O=C1c2ccccc2C(=O)c2c1cc(Sc1ccc3ccccc3c1)c1nsnc21 , what is its reported inhibition?
RESULT: Active

QUERY: For O=C1c2ccccc2C(=O)c2c1cc(Sc1cccs1)c1nsnc21 , what is its reported inhibition?
RESULT: Active

QUERY: For O=C1c2ccccc2C(=O)c2c1cc(SCc1ccccc1Cl)c1nsnc21 , what is its reported inhibition?
RESULT: Active

QUERY: For CC(C)CNc1cc2c(c3nsnc13)C(=O)c1ccccc1C2=O , what is its reported inhibition?
RESULT: Active
